Data provenance: paper PMC3014437

# Test system: LPS-induced iNOS-dependent NO production
# experimental protocol: LPS-induced NO production
# Format: cell-based, murine
# setup conditions: Mus musculus, read-out: IC50 (µM) in NOS
metric name: IC50 (µM)

• CC(C)[C@@H](C)/C=C/[C@@H](C)[C@H]1CC[C@@H]2[C@]1(C)CC[C@H]1[C@]23C=C[C@]2(C[C@@H](O)CC[C@]12C)OO3 [Compound 37, ergosterol peroxide] = 6.3
• C=C(C)C#Cc1c(C)c(OC)c(OC)c2c1OCO2 [Compound 2, Benzocamphorin B] = 12.1
• COc1cc(C)c(OC)c2c1OCO2 [Compound 8, 4,7-dimethoxy-5-methyl-1,3-benzodioxole] = 29.1
